- study-system: CD28 (human) (UniProt P10747)
- assay-explanation: flow cytometry, Jurkat cells (CD28)
Kindly return Yes if reported MFI at 33.3 nM is no lower than 300 MFI; return No if it is lower.

binder | group-label
variant CD80 E35D/D46E/M47V/V68M/D90G/K93E (Fc fusion) VIHVTKEVKEVATLSCGHNVSVEELAQTRIYWQKDKKMVLTMMSGEVNIWPEYKNRTIFDITNNLSIMILALRPSDEGTYECVVLKYEKGAFEREHLAEVT | Yes
CD80 variant H18Y/Y31H/E35D/M47V/A71G/L85Q IgV-Fc (Fc fusion) VIHVTKEVKEVATLSCGYNVSVEELAQTRIHWQKDKKMVLTMMSGDVNIWPEYKNRTIFDITNNLSIVILGLRPSDEGTYECVVQKYEKDAFKREHLAEVT | No
CD80 variant Q33K/E35D/D46V/L85Q IgV-Fc (Fc fusion) VIHVTKEVKEVATLSCGHNVSVEELAQTRIYWKKDKKMVLTMMSGVMNIWPEYKNRTIFDITNNLSIVILALRPSDEGTYECVVQKYEKDAFKREHLAEVT | No
variant CD80 R29H/E35D/M43V/M47I/I49V (Fc fusion) VIHVTKEVKEVATLSCGHNVSVEELAQTHIYWQKDKKMVLTMVSGDINVWPEYKNRTIFDITNNLSIVILALRPSDEGTYECVVLKYEKDAFKREHLAEVT | Yes
CD80 variant V22A/R29H/E35D/D46E/M47I IgV-Fc (Fc fusion) VIHVTKEVKEVATLSCGHNVSAEELAQTHIYWQKDKKMVLTMMSGEINIWPEYKNRTIFDITNNLSIVILALRPSDEGTYECVVLKYEKDAFKREHLAEVT | Yes
CD80 variant Q33L/E35D/M47L/V68M/L85Q/E88D IgV-Fc (Fc fusion) VIHVTKEVKEVATLSCGHNVSVEELAQTRIYWLKDKKMVLTMMSGDLNIWPEYKNRTIFDITNNLSIMILALRPSDEGTYECVVQKYDKDAFKREHLAEVT | No
CD80 variant H18L/V22A/E35D/M47L/N48T/L85Q IgV-Fc (Fc fusion) VIHVTKEVKEVATLSCGLNVSAEELAQTRIYWQKDKKMVLTMMSGDLTIWPEYKNRTIFDITNNLSIVILALRPSDEGTYECVVQKYEKDAFKREHLAEVT | Yes
CD80 variant Q33L/E35D/M43V/M47I/A71G IgV-Fc (Fc fusion) VIHVTKEVKEVATLSCGHNVSVEELAQTRIYWLKDKKMVLTMVSGDINIWPEYKNRTIFDITNNLSIVILGLRPSDEGTYECVVLKYEKDAFKREHLAEVT | No
CD80 variant Q33K/E35D/M47V/K89E/K93R IgV-Fc (Fc fusion) VIHVTKEVKEVATLSCGHNVSVEELAQTRIYWKKDKKMVLTMMSGDVNIWPEYKNRTIFDITNNLSIVILALRPSDEGTYECVVLKYEEDAFRREHLAEVT | No
CD80 variant Q33L/E35D/N48K/L85Q/L97Q IgV-Fc (Fc fusion) VIHVTKEVKEVATLSCGHNVSVEELAQTRIYWLKDKKMVLTMMSGDMKIWPEYKNRTIFDITNNLSIVILALRPSDEGTYECVVQKYEKDAFKREHQAEVT | No
